- systemTested: Recombinant BTK^C481S kinase (Homo sapiens, UniProt Q06187, C481S)
- Construct: purchased SignalChem
- Sequence (Q06187 whole entry C481S): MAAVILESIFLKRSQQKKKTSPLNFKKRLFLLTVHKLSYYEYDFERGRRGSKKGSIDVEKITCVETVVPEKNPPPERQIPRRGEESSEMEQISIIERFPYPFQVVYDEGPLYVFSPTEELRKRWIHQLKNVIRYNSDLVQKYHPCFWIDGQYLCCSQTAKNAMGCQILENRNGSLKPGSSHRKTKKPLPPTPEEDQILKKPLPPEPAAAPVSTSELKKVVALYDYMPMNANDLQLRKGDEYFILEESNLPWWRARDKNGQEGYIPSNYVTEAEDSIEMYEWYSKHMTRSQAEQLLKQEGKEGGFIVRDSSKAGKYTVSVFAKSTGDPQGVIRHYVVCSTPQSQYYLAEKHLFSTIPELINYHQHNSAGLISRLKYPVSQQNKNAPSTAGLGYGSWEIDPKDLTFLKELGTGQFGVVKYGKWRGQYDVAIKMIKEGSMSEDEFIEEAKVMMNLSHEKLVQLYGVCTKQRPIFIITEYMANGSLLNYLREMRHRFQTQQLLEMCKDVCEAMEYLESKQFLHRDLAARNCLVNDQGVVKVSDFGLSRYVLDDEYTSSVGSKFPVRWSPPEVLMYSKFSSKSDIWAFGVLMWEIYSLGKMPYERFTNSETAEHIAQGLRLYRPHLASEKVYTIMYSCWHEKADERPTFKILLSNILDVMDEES
- experiment: BTK C481S binding affinity (LanthaScreen TR-FRET)
- testSettings: Kinase Tracer 236, 5 h incubation
- Method: BTK^C481S binding affinity of each compound tested was determined using a time-resolved fluorescence resonance energy transfer (TR-FRET) methodology. 5 nM Recombinant BTK^WT kinase, varying concentrations of inhibitor, 2 nM LanthaScreen™ Eu anti-His Antibody and 30 nM Kinase Tracer 236 was incubated in 1× LanthaScreen™ Kinase Buffer A for 5 h. […] The TR-FRET signal was read on a plate reader with an excitation wavelength of 340 nm and detection wavelengths of 615 and 665 nm. […]
assayMetric: IC50

Some solved cases for reference:
**Q:** Reported IC50 for COc1ccccc1C(=O)NCc1ccc(-c2nn(C3CC(C)OC(C)C3)c(N)c2C(N)=O)cc1 (centres unmarked) : what is it?
**A:** < 10 nM

**Q:** Reported IC50 for CCOC(=O)C1CCC(n2nc(-c3ccc(CNC(=O)c4ccccc4OC)cc3)c(C(N)=O)c2N)CC1 (centres unmarked) : what is it?
**A:** < 10 nM

**Q:** Reported IC50 for COc1ccccc1C(=O)NCc1ccc(-c2nn(C3CCCOC3)c(N)c2C(N)=O)c(F)c1 (centres unmarked) : what is it?
**A:** < 10 nM

**Q:** Reported IC50 for COc1ccccc1C(=O)NCc1ccc(-c2nn(C3CCCC3)c(N)c2C(N)=O)cn1 : what is it?
**A:** 10 to 100 nM

---
**Q:** Reported IC50 for COc1ccc(F)cc1C(=O)NCc1ccc(-c2nn(CC(F)(F)F)c(N)c2C(N)=O)cc1 : what is it?
**A:** < 10 nM

**Q:** Reported IC50 for COc1ccccc1C(=O)NCc1ccc(-c2nn(C3CCCC3)c(Nc3ccccc3)c2C(N)=O)cc1 : what is it?
**A:** 100 to 1000 nM

**Q:** Reported IC50 for COc1ccc(F)cc1C(=O)NCc1cc(F)c(-c2nn(C(C)C(F)(F)F)c(N)c2C(N)=O)cc1F (centres unmarked) : what is it?
**A:** < 10 nM

**Q:** Reported IC50 for COc1ccc(F)cc1C(=O)NCc1cc(F)c(-c2nn(C3CCCC3)c(N)c2C(N)=O)cc1F : what is it?
**A:** < 10 nM
